Assignment: determine reported inhibition at 10 µM for the given molecules.
Molecular target: hFASN enzyme (full length) (Homo sapiens)
Construct: 10 μL hFASN enzyme (full length, 300 ng, purified in house); made in house
Test: Fatty Acid Synthase (FASN) inhibition scintillation proximity assay
Assay type: biochemical
Conditions: read-out: Human FASN % inhibition @ 10 μM, 10 μM test compound
Method: In this assay, inhibition of FASN activity is measured using ^3H-acetyl-CoA and malonyl-CoA as substrates. ^3H-Acetyl CoA is converted to ^3H-palmitate through a series of reactions by the FASN protein, which contains 7 functional domains and carries out 7 enzymatic reactions to ultimately produce ^3H-palmitate. The assay principle is based upon the fact that ^3H-acetyl-CoA is hydrophilic and the end product, ^3H-palmitate is hydrophobic. […]
The reply should read as a number followed by its unit.

Challenge: Name the recorded inhibition at 10 µM for Cc1oc2ccc(-c3ccc(C4=NC5(CC5)C(=O)N4C[C@@H]4CCN(C(=O)C5CC5)C4)c(F)c3)cc2c1C [compound 244] .
Response given: 101%

Challenge: Name the recorded inhibition at 10 µM for Cn1cc(-c2ccc(-c3ccc(C4=NC5(CCOCC5)C(=O)N4C[C@@H]4CCN(C(=O)N5CCCC5)C4)cc3)cc2)cn1 [compound 660] .
Response given: 76%

Challenge: Name the recorded inhibition at 10 µM for O=C(C1CC1)N1CC[C@@H](CN2C(=O)C3(CC3)N=C2c2ccc(-c3ccc4cccnc4c3)cc2F)C1 [compound 249] .
Response given: 102%

Challenge: Name the recorded inhibition at 10 µM for Cc1cc(-c2ccc3c(cnn3C)c2)ccc1C1=NC2(CC2)C(=O)N1CC1CN(C(=O)C2(CO)CC2)C1 [compound 480] .
Response given: 97%

Challenge: Name the recorded inhibition at 10 µM for Cc1cc2cc(-c3ccc(C4=NC5(CC5)C(=O)N4C[C@@H]4CCN(C(=O)C5(O)CC5)C4)c(F)c3)ccc2o1 [compound 355] .
Response given: 96%

Challenge: Name the recorded inhibition at 10 µM for COc1ccc2ccc(-c3ccc(C4=NC5(CC5)C(=O)N4CC4CN(C(=O)C5CC5)C4)c(F)c3)cc2c1 [compound 618] .
Response given: 98%

Challenge: Name the recorded inhibition at 10 µM for CN(C)CC(=O)N1CCC2(CC1)N=C(c1ccc(-c3ccc4c(cnn4C)c3)cc1)N(CC1CN(C(=O)C3CC3)C1)C2=O [compound 136] .
Response given: 77.7%

###

molecular target: hFASN enzyme (full length) (Homo sapiens, UniProt P49327); construct: 10 μL hFASN enzyme (full length, 300 ng, purified in house); made in house; assay: Fatty Acid Synthase (FASN) inhibition scintillation proximity assay; format: biochemical; conditions: read-out: Human FASN pIC50 (converted)
Sequence (P49327 whole entry): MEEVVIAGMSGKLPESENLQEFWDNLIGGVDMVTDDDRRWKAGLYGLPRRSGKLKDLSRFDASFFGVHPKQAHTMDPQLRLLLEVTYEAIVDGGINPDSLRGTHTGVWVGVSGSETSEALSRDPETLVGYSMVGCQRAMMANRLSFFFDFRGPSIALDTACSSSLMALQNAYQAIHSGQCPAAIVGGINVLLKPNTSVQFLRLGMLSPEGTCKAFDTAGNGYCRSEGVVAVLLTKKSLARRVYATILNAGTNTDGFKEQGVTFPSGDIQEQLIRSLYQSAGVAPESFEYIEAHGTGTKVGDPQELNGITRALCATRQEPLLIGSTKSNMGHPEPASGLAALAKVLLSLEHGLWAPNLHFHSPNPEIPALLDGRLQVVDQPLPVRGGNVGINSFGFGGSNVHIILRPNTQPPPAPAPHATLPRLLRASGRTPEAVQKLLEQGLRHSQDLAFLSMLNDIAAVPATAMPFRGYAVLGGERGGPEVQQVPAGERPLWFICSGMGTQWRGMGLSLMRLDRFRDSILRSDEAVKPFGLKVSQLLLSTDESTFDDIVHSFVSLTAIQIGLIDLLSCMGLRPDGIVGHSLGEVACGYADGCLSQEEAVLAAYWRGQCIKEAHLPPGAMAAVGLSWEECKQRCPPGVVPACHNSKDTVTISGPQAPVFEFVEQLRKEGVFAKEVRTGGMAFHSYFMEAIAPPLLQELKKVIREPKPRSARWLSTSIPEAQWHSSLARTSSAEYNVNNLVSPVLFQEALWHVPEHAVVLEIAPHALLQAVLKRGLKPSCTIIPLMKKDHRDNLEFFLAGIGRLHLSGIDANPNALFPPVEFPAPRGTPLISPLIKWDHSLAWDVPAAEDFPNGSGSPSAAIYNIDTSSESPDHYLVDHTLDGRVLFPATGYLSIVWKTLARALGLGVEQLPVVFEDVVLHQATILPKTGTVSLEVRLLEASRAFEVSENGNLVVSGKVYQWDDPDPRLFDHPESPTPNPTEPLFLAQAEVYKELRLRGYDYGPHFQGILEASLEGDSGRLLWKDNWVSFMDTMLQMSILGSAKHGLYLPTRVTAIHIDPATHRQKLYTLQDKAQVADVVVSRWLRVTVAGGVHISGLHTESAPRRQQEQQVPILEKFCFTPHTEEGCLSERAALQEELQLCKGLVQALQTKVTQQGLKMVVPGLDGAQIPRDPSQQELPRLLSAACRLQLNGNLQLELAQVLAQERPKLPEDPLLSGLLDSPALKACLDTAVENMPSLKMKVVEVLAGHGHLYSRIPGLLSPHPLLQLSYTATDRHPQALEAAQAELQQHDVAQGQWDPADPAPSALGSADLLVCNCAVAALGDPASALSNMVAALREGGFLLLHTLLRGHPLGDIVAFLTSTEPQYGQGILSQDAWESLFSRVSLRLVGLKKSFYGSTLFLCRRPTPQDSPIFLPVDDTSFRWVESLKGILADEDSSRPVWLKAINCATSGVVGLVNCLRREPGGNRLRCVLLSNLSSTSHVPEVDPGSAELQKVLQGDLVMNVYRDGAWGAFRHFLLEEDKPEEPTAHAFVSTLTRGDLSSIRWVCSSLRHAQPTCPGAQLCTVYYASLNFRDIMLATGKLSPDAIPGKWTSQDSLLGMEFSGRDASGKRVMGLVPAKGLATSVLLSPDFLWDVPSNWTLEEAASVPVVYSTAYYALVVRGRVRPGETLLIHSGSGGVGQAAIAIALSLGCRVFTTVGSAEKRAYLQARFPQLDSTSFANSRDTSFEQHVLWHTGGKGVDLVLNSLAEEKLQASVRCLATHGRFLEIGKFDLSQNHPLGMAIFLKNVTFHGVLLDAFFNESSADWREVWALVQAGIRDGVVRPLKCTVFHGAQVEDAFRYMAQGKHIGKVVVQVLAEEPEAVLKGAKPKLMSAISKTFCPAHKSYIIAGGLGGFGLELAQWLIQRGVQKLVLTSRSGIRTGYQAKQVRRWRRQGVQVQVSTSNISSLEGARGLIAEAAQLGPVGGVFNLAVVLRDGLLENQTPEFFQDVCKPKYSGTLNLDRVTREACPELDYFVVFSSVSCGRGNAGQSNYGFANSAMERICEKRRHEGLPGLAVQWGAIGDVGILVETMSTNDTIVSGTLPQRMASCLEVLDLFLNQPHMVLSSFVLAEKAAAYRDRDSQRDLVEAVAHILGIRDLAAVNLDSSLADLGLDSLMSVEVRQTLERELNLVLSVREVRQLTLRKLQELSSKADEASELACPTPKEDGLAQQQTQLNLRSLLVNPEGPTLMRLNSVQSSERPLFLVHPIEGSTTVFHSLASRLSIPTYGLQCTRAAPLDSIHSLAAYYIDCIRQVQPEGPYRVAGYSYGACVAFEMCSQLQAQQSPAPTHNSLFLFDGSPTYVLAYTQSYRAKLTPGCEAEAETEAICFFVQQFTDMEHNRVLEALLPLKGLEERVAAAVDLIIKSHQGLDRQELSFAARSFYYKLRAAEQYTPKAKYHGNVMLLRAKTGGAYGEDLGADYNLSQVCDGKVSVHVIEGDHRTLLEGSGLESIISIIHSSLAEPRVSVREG
PROPERTY: IC50 (µM)
Express the result in µM but write the number alone.

Challenge: Name the recorded IC50 for CC(C)Cn1cc(-c2ccc(-c3ccc(C4=NC5(CC5)C(=O)N4CC4CN(C(=O)C5CC5)C4)cc3)cc2)cn1 [compound 544] .
Response given: 0.204

Challenge: Name the recorded IC50 for CN(C)CC(=O)N1CCC2(CC1)N=C(c1ccc(-c3ccc4c(cnn4C)c3)cc1)N(CC1CN(C(=O)C3CC3)C1)C2=O [compound 136] .
Response given: 2.95

Challenge: Name the recorded IC50 for Cc1cc(-c2ccc3sc(C)c(C)c3c2)ccc1C1=NC2(CC2)C(=O)N1CC1CN(C(=O)C2CC2)C1 [compound 290] .
Response given: 0.0794

Challenge: Name the recorded IC50 for O=C(C1CC1)N1CC[C@@H](CN2C(=O)C3(CCCC3)N=C2c2ccc(-c3ccc4ncccc4c3)cc2)C1 [compound 11] .
Response given: 0.933

Challenge: Name the recorded IC50 for Cc1cc(-c2ccc3c(cnn3C)c2)ccc1C1=NC2(CC2)C(=O)N1CC1CN(C(=O)C2(C)CCC2)C1 [compound 208] .
Response given: 0.0646

Challenge: Name the recorded IC50 for O=C([C@H]1CCCO1)N1CC(CN2C(=O)C3(CCOC3)N=C2c2ccc(-c3ccc4cccnc4c3)cc2)C1 (stereo partly shown) [compound 716] .
Response given: 0.398

###

Target: hFASN enzyme (full length) (Homo sapiens, UniProt P49327)
Construct: 10 μL hFASN enzyme (full length, 300 ng, purified in house); made in house
Test: Fatty Acid Synthase (FASN) inhibition scintillation proximity assay
Assay type: biochemical
Details: read-out: Human FASN pIC50 (converted)
Method: In this assay, inhibition of FASN activity is measured using ^3H-acetyl-CoA and malonyl-CoA as substrates. ^3H-Acetyl CoA is converted to ^3H-palmitate through a series of reactions by the FASN protein, which contains 7 functional domains and carries out 7 enzymatic reactions to ultimately produce ^3H-palmitate. The assay principle is based upon the fact that ^3H-acetyl-CoA is hydrophilic and the end product, ^3H-palmitate is hydrophobic. […]
PROPERTY: log10 IC50 (log10 of the value in nM)
Hi team, quick reminder: these entries are log10 of IC50 (nM).

Challenge: Name the recorded log10 IC50 for Cc1cccc(-c2ccc(C3=NC4(CC4)C(=O)N3CC3CCN(C(=O)C4CC4)CC3)cc2)c1 .
Response given: 3.64

Challenge: Name the recorded log10 IC50 for O=C(C1CC1)N1CC(CN2C(=O)C3(CC3)N=C2c2ccc(-c3ccc4cccnc4c3)cc2F)C1 .
Response given: 1.69

Challenge: Name the recorded log10 IC50 for O=C(C1CC1)N1CC(CN2C(=O)C3(CCOC3)N=C2c2ccc(-c3ccc4cccnc4c3)cc2)C1 (centres unmarked) .
Response given: 2.56

Challenge: Name the recorded log10 IC50 for CC(C)N1CCC2(CC1)N=C(c1ccc(-c3ccc4occc4c3)cc1)N(C[C@@H]1CCN(C(=O)C3CC3)C1)C2=O .
Response given: 2.72

Challenge: Name the recorded log10 IC50 for Cn1cc(-c2ccc(-c3ccc(C4=NC5(CC5)C(=O)N4CC4CN(C(=O)C5(C)CC5)C4)c(F)c3)cc2)cn1 .
Response given: 1.49

Challenge: Name the recorded log10 IC50 for CC(C)N1CCC2(CC1)N=C(c1ccc(-c3ccc(-c4cnn(C)c4)cc3)cc1)N(CC1CN(C(=O)C3CC3)C1)C2=O .
Response given: 3.88

Challenge: Name the recorded log10 IC50 for O=C(N1CCCC1)N1CC(CN2C(=O)C3(CCOC3)N=C2c2ccc(-c3ccc4occc4c3)cc2)C1 (centres unmarked) .
Response given: 3.76

Challenge: Name the recorded log10 IC50 for O=C(C1CC1)N1CC[C@@H](CN2C(=O)C3(CC3)N=C2c2ccc(-c3ccc4[nH]ccc4c3)cc2)C1 .
Response given: 1.34

Challenge: Name the recorded log10 IC50 for Cc1cc2cc(-c3ccc(C4=NC5(CC5)C(=O)N4CC4CN(C(=O)C5CC5)C4)cc3)ccc2o1 .
Response given: 2.01

Challenge: Name the recorded log10 IC50 for O=C(C1CC1)N1CC[C@@H](CN2C(=O)C3(CC3)N=C2c2ccc(-c3ccc(F)c(Cl)c3)cc2)C1 .
Response given: 1.95

Challenge: Name the recorded log10 IC50 for O=C(C1CC1)N1CC(CN2C(=O)C3(CC3)N=C2c2ccc(-c3ccc4nn(CCO)cc4c3)cc2F)C1 .
Response given: 3.09

Challenge: Name the recorded log10 IC50 for COc1ccc2cc(-c3ccc(C4=NC5(CC5)C(=O)N4CC4CN(C(=O)C5(C)CC5)C4)c(C)c3)ccc2c1 .
Response given: 1.27

Challenge: Name the recorded log10 IC50 for O=C(C1CC1)N1CC[C@H](CN2C(=O)C3(CC3)N=C2c2ccc(-c3ccc4[nH]ccc4c3)cc2)C1 .
Response given: 1.95

###

target: hFASN enzyme (full length) (Homo sapiens); construct: 10 μL hFASN enzyme (full length, 300 ng, purified in house); made in house; test: Fatty Acid Synthase (FASN) inhibition scintillation proximity assay; format: biochemical; conditions: read-out: Human FASN pIC50 (converted)
Assignment: determine reported IC50 for the given compounds.
Express the result in nM but write the number alone.

Challenge: Name the recorded IC50 for Cn1nc(CO)c2cc(-c3ccc(C4=NC5(CC5)C(=O)N4CC4CN(C(=O)C5CC5)C4)c(F)c3)ccc21 [compound 609] .
Response given: 186

Challenge: Name the recorded IC50 for O=C(C1CC1)N1CC(CN2C(=O)C3(CC3)N=C2c2ccc(-c3ccc4cccnc4n3)cc2)C1 [compound 511] .
Response given: 355

Challenge: Name the recorded IC50 for Cc1cc(-c2cccc(NC(=O)C3CC3)c2)ccc1C1=NC2(CC2)C(=O)N1C[C@@H]1CCN(C(=O)C2CC2)C1 [compound 614] .
Response given: 151

Challenge: Name the recorded IC50 for Cc1cc2cc(-c3ccc(C4=NC5(CC5)C(=O)N4CC4CN(C(=O)C5CC5)C4)c(F)c3)ccc2o1 [compound 353] .
Response given: 55

Challenge: Name the recorded IC50 for O=C(C1CC1)N1CC[C@@H](CN2C(=O)C3(CC3)N=C2c2ccc(-c3ccc4cc(F)ccc4c3)cc2F)C1 [compound 259] .
Response given: 25.1

Challenge: Name the recorded IC50 for O=C(C1CC1)N1CC[C@@H](CN2C(=O)C3(CCCC3)N=C2c2ccc(-c3ccc4occc4c3)cc2)C1 [compound 2] .
Response given: 45.7

Challenge: Name the recorded IC50 for Cn1cc(-c2ccc(-c3ccc(C4=NC5(CCNCC5)C(=O)N4CC4CN(C(=O)C5CC5)C4)cc3)cc2)cn1 [compound 759] .
Response given: 9120

Challenge: Name the recorded IC50 for COCCN1CCC2(CC1)N=C(c1ccc(-c3ccc4[nH]ncc4c3)cc1)N(C[C@@H]1CCN(C(=O)C3CC3)C1)C2=O [compound 748] .
Response given: 355

Challenge: Name the recorded IC50 for O=C(C1CC1)N1CC[C@@H](CN2C(=O)C3(CC3)N=C2c2ccc(-c3cccc(F)c3)cc2)C1 [compound 102] .
Response given: 209

Challenge: Name the recorded IC50 for O=C(C1CC1)N1CC(CN2C(=O)C3(CCN(C(=O)C(F)(F)F)CC3)N=C2c2ccc(-c3ccc4[nH]ccc4c3)cc2)C1 [compound 765] .
Response given: 363

Challenge: Name the recorded IC50 for O=C(C1CC1)N1CC(CN2C(=O)C3(CC3)N=C2c2ccc(-c3cccc4[nH]ncc34)c(F)c2)C1 [compound 443] .
Response given: 912

Challenge: Name the recorded IC50 for Cn1cc(-c2ccc(-c3ccc(C4=NC5(CCN(C(=O)C6CC6)CC5)C(=O)N4CC4CN(C(=O)C5CC5)C4)cc3)cc2)cn1 [compound 770] .
Response given: 2190

Challenge: Name the recorded IC50 for Cc1cc2cc(-c3ccc(C4=NC5(CC5)C(=O)N4CC4CN(C(=O)C5CC5)C4)c(F)c3)ccc2s1 [compound 548] .
Response given: 162

Challenge: Name the recorded IC50 for COC(=O)N1CC2(C1)N=C(c1ccc(-c3ccc4occc4c3)cc1)N(C[C@@H]1CCN(C(=O)C(C)O)C1)C2=O (some centres unmarked) [compound 734] .
Response given: 1700

Origin of measurements: patent US10077261B2
